Answer each item with its documented MEAN CORPUSCULAR HEMOGLOBIN.
- Species: Rattus norvegicus
- experimentalProtocol: DrugMatrix - Regimen: Daily Repeat
- Assay type: toxicity, organism-based, Sprague-Dawley
- Design: regimen Daily Repeat, gender Male, age 6-8 weeks
- conditionLabel: in vivo, po, 0 mg/kg, […], tissue Blood, route oral GAVAGE, dose level Control, time 14 day, vehicle .5 % CMC

See these solved cases before continuing.
ClC(Br)Br ... 22.63 pg
COc1ccc(C(=O)Nc2c(Cl)c[n+]([O-])cc2Cl)c2ccc(C(F)(F)F)nc12 ... 19.8 pg
CCOP(=S)(OCC)Oc1nc(Cl)c(Cl)cc1Cl ... 20.85 pg

Next:
Prompt: GET /values?readout=MEAN CORPUSCULAR HEMOGLOBIN&item= "ClC(Cl)Br"
Completion: 22.63 pg

====

- Organism: Rattus norvegicus
- experimentalProtocol: DrugMatrix - Regimen: Daily Repeat
- Format: toxicity, organism-based, Sprague-Dawley
- Design: regimen Daily Repeat, gender Male, age 6-8 weeks
- conditionLabel: in vivo, po, 0 mg/kg, 120 h, tissue Blood, route oral GAVAGE, dose level Control, time 5 day, […]
For each of the compounds below, state its EOSINOPHIL.
Answers are plain numbers, in %.

For orientation, consider the following solved cases.
Cc1ccc(-c2cc(C(F)(F)F)nn2-c2ccc(S(N)(=O)=O)cc2)cc1 [CELECOXIB] ... 1.83
C[C@H]1O[C@@H](O[C@H]2[C@@H](O)C[C@H](O[C@H]3[C@@H](O)C[C@H](O[C@H]4CC[C@@]5(C)[C@H](CC[C@@H]6[C@@H]5C[C@@H](O)[C@]5(C)[C@@H](C7=CC(=O)OC7)CC[C@]65O)C4)O[C@@H]3C)O[C@@H]2C)C[C@H](O)[C@@H]1O [DIGOXIN] ... 0

Hi there! I need EOSINOPHIL for each item below, if you can.
1. OC(Cn1cncn1)(Cn1cncn1)c1ccc(F)cc1F [FLUCONAZOLE]
2. Cc1noc(NS(=O)(=O)c2ccc(N)cc2)c1C [SULFISOXAZOLE]
3. Cc1oncc1C(=O)Nc1ccc(C(F)(F)F)cc1 [LEFLUNOMIDE]
4. CC(C)C(=O)Nc1ccc([N+](=O)[O-])c(C(F)(F)F)c1 [FLUTAMIDE]
5. CC(C)(Oc1ccc(Cl)cc1)C(=O)O [CLOFIBRIC ACID]
6. C[C@@H]1CN(c2c(F)c(N)c3c(=O)c(C(=O)O)cn(C4CC4)c3c2F)C[C@H](C)N1 [SPARFLOXACIN]

Completion:
1: 1.83; 2: 0.33; 3: 0; 4: 0.17; 5: 0.33; 6: 0

Record EOSINOPHIL per entry; entries follow.
1. O=c1oc2ccccc2c(O)c1Cc1c(O)c2ccccc2oc1=O [DICUMAROL]
2. O=C(O)CCCc1ccc(N(CCCl)CCCl)cc1 [CHLORAMBUCIL]
3. CCOC(=O)C1=C(COCCN)NC(C)=C(C(=O)OC)C1c1ccccc1Cl (centres undefined) [AMLODIPINE]
4. O=NN(CCCl)C(=O)NC1CCCCC1 [LOMUSTINE]

Completion:
[0, 1.83, 0, 0]

Hey, can you go through the list below and give me EOSINOPHIL for every item?
1. CCC(C)n1ncn(-c2ccc(N3CCN(c4ccc(OCC5COC(Cn6cncn6)(c6ccc(Cl)cc6Cl)O5)cc4)CC3)cc2)c1=O (centres undefined) [ITRACONAZOLE]
2. CN(C)c1nc(N(C)C)nc(N(C)C)n1 [ALTRETAMINE]

Completion:
1.83
0
